biological target: T1, recombinant human IL-17A (human, UniProt Q16552 24-155); assay: competition ELISA, IL-17A binding to coated IL-17RA-Fc
T1 construct: Bought recombinant protein (Peprotech AF-200-17); also called Peprotech AF-200-17
T1 sequence (Q16552 24-155): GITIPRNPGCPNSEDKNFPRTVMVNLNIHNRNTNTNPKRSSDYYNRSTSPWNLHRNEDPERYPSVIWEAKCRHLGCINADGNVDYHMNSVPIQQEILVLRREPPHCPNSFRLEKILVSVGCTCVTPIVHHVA
reportedEndpoint: pIC50
Quick note: pIC50 means taking -log10 of the concentration in moles per liter.

Input: Report pIC50 for Clone 3.6 (VHH, Human single VH domain) VHH: QVQLVQSGAEVKKPGASVKVSCAASGYTFTDYYLHWVRQAPGQGLEWMGWINPNTGTTKYAREFEGRVTMTRDTSISTAYMELSRLRSDDTAVYYCASLDRDWRSPNDYYGWFDSWGQGTLVTVSS please.
Output: 8.52

Input: // lookup pIC50 for Clone 3.3 (VHH, Human single VH domain) VHH: QVQLVQSGAEVKKPGASVKVSCAASGYTFTDYYLHWVRQAPGQGLEWMGWINPNTGTTKYAREFEGRVTMTRDTSISTAYMELSRLRSDDTAVYYCASMDRDYYDTSGYFGWFDSWGQGTLVTVSS
Output: 6.57

Input: // lookup pIC50 for Clone 3.11 (VHH, Human single VH domain) VHH: QVQLVQSGAEVKKPGASVKVSCKASGYNFDAYHINWVRQAPGQGLEWMGSIKPNSGATKYAQKFQGRVTITRDTSISTAYMELSRLRSDDTAVYYCASLDRDTWYPHSYFGWFDSWGQGTLVTVSS
Output: 8.10
